Hey, just so you know, these numbers are from patent US6673938B1.

- System: Monocotyledonous and dicotyledonous test plants
- assay-overview: Herbicidal action before emergence of the plants (pre-emergence action)
- Assay type: in vivo
- condition-details: Abutilon; 250 g/ha; evaluated after 3 weeks; nine-step scale
Pre-emergence action, Abutilon values by entry

>>> measured_result("COCc1nc(C(F)(F)F)ccc1C(=O)C1=C(O)C(C)(C)C(C)CC1=O (centres unmarked) [Compound A8-B156]")
3

Which Pre-emergence action, Abutilon reading was recorded for the compound CCOC(=O)OCc1nc(C(F)(F)F)ccc1C(=O)C1=C(O)C(C)(C)C(=O)C(C)(C)C1=O [Compound A1208-B354] ?
1

Would you kindly share the measured Pre-emergence action, Abutilon for COCc1nc(C(F)(F)F)ccc1C(=O)C1=C(O)CC(C)(C)CC1=O [Compound A8-B1063] ?
2

Which value of Pre-emergence action, Abutilon has been reported for COc1nc(C(F)(F)F)ccc1C(=O)C1=C(O)C(C)(C)CCC1=O [Compound A1022-B24] in the records?
3

Sample CCOC(=O)C1C(O)=C(C(=O)c2ccc(C(F)(F)F)nc2C)C(=O)CC1C (centres unmarked) [Compound A2-B145] — what was its Pre-emergence action, Abutilon?
2

Which Pre-emergence action, Abutilon is reported for this compound? COCc1nc(C(F)(F)F)ccc1C(=O)C1=C(O)C(C)(C)OCC1=O [Compound A8-B552]
1

Tell me the measured Pre-emergence action, Abutilon of COCc1nc(C(F)(F)F)ccc1C(=O)C1=C(O)CCCC1=O [Compound A8-B1] , please.
1

Reported Pre-emergence action, Abutilon for Cc1c(C(=O)C2=C(Cl)C(C)(C)C(=O)C(C)(C)C2=O)ccc(C(F)(F)F)[n+]1[O-] [Compound A1210-B1105] : what is it?
1

* * *

- Test system: Monocotyledonous and dicotyledonous test plants
- assay-overview: Herbicidal action before emergence of the plants (pre-emergence action)
- Format: in vivo
- condition-details: Ipomoea; 2000 g/ha; evaluated after 3 weeks; nine-step scale
Examples of molecules with documented pre-emergence action, Ipomoea follow.
Format: numeric value only, no unit, no commentary.

>>> measured_result("Cc1nc(C(F)(F)F)ccc1C(=O)C1=C(O)CCC2(CC2)C1=O")
3
>>> measured_result("Cc1nc(C(F)(F)F)ccc1C(=O)C1=C(O)C(C)C(C)CC1=O (centres unmarked)")
2
>>> measured_result("CCC1(C)CC(C)(C)C(=O)C(C(=O)c2ccc(C(F)(F)F)nc2C)=C1O (centres unmarked)")
2
>>> measured_result("COC1CCC(=O)C(C(=O)c2ccc(C(F)(F)F)nc2C)=C1O (centres unmarked)")
2
>>> measured_result("Cc1c(C(=O)C2=C(O)C(C)(C)C(=O)C(C)(C)C2=O)ccc(C(F)(F)F)[n+]1[O-]")
3
>>> measured_result("Cc1nc(C(F)(F)F)ccc1C(=O)C1=C(O)C(C)(C)C(=O)C(C)(C)C1=O")
1
>>> measured_result("Cc1nc(C(F)(F)F)ccc1C(=O)C1=C(O)C(C)CC2(CC2)C1=O (centres unmarked)")
3

Look at this molecule and give its reported pre-emergence action, Ipomoea. Cc1nc(C(F)(F)F)ccc1C(=O)C1=C(O)C(C)(C)CC2(CC2)C1=O
2

* * *

- System: Monocotyledonous and dicotyledonous test plants
- assay-overview: Herbicidal action before emergence of the plants (pre-emergence action)
- Format: in vivo
- condition-details: Cyperus; 2000 g/ha; evaluated after 3 weeks; nine-step scale
- Experimental: Monocotyledonous and dicotyledonous test plants are sown in standard soil in plastic pots. […] After a test period of 3 weeks, the experiment is evaluated with reference to a nine-step scale (1=complete damage, 9=no effect). […]
endpoint: pre-emergence action, Cyperus
Output spec: single numeric token, no unit.

Examples with answers:
>>> measured_result("Cc1nc(C(F)(F)F)ccc1C(=O)C1=C(O)C(C)C(C)CC1=O (stereo not drawn)")
1
>>> measured_result("Cc1nc(C(F)(F)F)ccc1C(=O)C1=C(O)C(C)CCC1=O (stereo not drawn)")
1
>>> measured_result("COCCc1nc(C(F)(F)F)ccc1C(=O)C1=C(O)CCCC1=O")
2
>>> measured_result("Cc1nc(C(F)(F)C(F)(F)C(F)(F)F)ccc1C(=O)C1=C(O)C(C)(C)CCC1=O")
4
>>> measured_result("Cc1nc(C(F)(F)F)ccc1C(=O)C1=C(O)C(C)CC2(CC2)C1=O (stereo not drawn)")
2

Suppose we examine the compound CSC1(C)CC(C)(C)C(=O)C(C(=O)c2ccc(C(F)(F)F)nc2C)=C1O (stereo not drawn) ; what pre-emergence action, Cyperus value has been reported?
2

Requested field: pre-emergence action, Cyperus. Item: Cc1nc(C(F)(F)F)ccc1C(=O)C1=C(O)C(C)CC(C)C1=O (stereo not drawn) [A2-B46 (trans)]
1

Entry Cc1nc(C(F)(F)F)ccc1C(=O)C1=C(O)C(C)CC(C)C1=O (stereo not drawn) [A2-B46 (cis)] : reported pre-emergence action, Cyperus = ?
1

What value of pre-emergence action, Cyperus has been reported for the following compound? CCC1(C)CCC(=O)C(C(=O)c2ccc(C(F)(F)F)nc2C)=C1O (stereo not drawn)
2
